Test system: HeLa cells
Experiment: Mitochondrion-nucleolus migration on CCCP treatment, HeLa cells
Format: cell-based
Conditions: pre-stained 2 μM 30 min, 20 μM CCCP 5 min
measured.property: nucleolus staining after addition of CCCP

CC[n+]1ccc(/C=C/c2c[nH]c3ccccc23)cc1 [IVP-02] : could stain nucleolus
CCCCCCn1cc(/C=C/c2cc[n+](CC)cc2)c2ccccc21 [IVP-62] : cannot
CCCCCC[n+]1ccc(/C=C/c2c[nH]c3ccccc23)cc1 [IVP-06] : cannot
CCCC[n+]1ccc(/C=C/c2c[nH]c3ccccc23)cc1 [IVP-04] : could stain nucleolus
CCCCn1cc(/C=C/c2cc[n+](CC)cc2)c2ccccc21 [IVP-42] : could stain nucleolus

Alright, here's another compound for you.
# input State its nucleolus staining after addition of CCCP for this compound: CCn1cc(/C=C/c2cc[n+](CC)cc2)c2ccccc21 [IVP-22]
# output could stain nucleolus
